Cited source for all entries: PubChem BioAssay

assay: Pseudomonas biofilm growth suppression – PAO1 strain, BacTiter-Glo luminescence, LB-PBS, primary screen (AID 1144); conditions: P. aeruginosa PAO1 biofilm, 12 h, higher = more signal
Binary call on z-score: Condition met from 0.2 upward, Condition not met beneath that.

{"columns": ["MOLECULE", "LABEL_CLASS"],
 "data": [
  ["C#CCN1[C@H](/C=C/C2CC2)[C@H](Cc2ccccc2)OC(=O)[C@@H]1Cc1ccccc1", "Condition met"],
  ["C=CC1c2cc(O)c(OC)cc2CCN1Cc1cccc(OC(F)(F)F)c1 (stereo not given)", "Condition not met"],
  ["O=C(O)[C@H](Cc1ccccc1)n1cc(-c2ccccc2)nn1", "Condition not met"],
  ["[N-]=[N+]=NCc1ccccc1[C@@H]1OC(c2ccc(OCCCO)cc2)=N[C@]1(CCS(=O)(=O)c1ccccc1)C(=O)N1CCOCC1", "Condition not met"],
  ["C=CCC(OC(C)=O)[C@@H]1[C@@H](N(Cc2ccc(-c3cccc(C(F)(F)F)c3)o2)C(=O)c2cccc3ccccc23)c2cc(OCCCO)ccc2N1C(=O)Cc1ccc2ccccc2c1 (stereo not given in full)", "Condition met"],
  ["CC=CC(O)C1C=CC2C(=O)N(C)C(=O)C2N1N(c1ccccc1)c1ccccc1 (stereo not given)", "Condition met"],
  ["O=C1C2C=CC(C(O)c3ccc(-c4ccccc4)s3)N(Nc3ccccc3)C2C(=O)N1c1ccccc1 (stereo not given)", "Condition not met"],
  ["COC(=O)[C@]1(Cc2ccccc2)N=C(c2ccc(OCCCO)cc2)O[C@@H]1c1ccccc1N=[N+]=[N-]", "Condition not met"],
  ["O=C1NC(=O)C2C1C=CC(C(O)C=Cc1ccc([N+](=O)[O-])cc1)N2Nc1ccc(Cl)cc1Cl (stereo not given)", "Condition not met"],
  ["O=C1O[C@H](c2ccccc2)[C@H](c2ccccc2)N2[C@H]1[C@@H](C(=O)N1CCN(c3ncccn3)CC1)[C@]1(C(=O)Nc3ccc(C#CC4=CCCCC4)cc31)[C@H]2c1ccccc1OCCO", "Condition not met"]
]}
